target-of-assay: UCHL1, P09936
Sequence (P09936 whole entry, looked up, the tested form may be a part): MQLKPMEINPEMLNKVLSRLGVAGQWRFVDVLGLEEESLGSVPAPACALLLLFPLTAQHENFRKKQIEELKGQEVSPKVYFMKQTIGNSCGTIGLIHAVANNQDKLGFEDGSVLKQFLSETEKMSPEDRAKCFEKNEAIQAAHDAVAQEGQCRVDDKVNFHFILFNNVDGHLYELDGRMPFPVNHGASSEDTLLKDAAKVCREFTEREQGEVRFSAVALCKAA
test-description: median log2 fold change of GCK-ALFA target abundance (FLAG IP / Myc IP barcode read proportion) (log2 ratio); each designed protein is fused to an ALFA-tag nanobody in HEK293 cells to bring the named protein to FLAG-tagged glucokinase (GCK); Myc marks an untargeted standard; higher = target protein stabilised (more abundant)
cond: target protein: 3xFLAG-MCP-GCK-ALFA reporter; HEK293 landing pad (RPLP)
measured-attribute: median log2 fold change
Enter a number only.

uchl1_89_7590 (protein) EEAKAKAARARLERVLAATEAALRRLLARLGAPDPALVAALDALLAAARAALADPATAAAHLAAAEAAARRLVELAPPEVRASVRLATGRLVNALRGYVA	-0.00562

As a next step, examine the binder that follows.
Give the measured median log2 fold change for uchl1_122_7428 (protein) METVEVVGRRRAIEAFAEIVREVAAEHGIAVEVEIEELSPTTARLTITFDVPPISDEELAAFEEDLARRVAEAVRELGLSPAEFGIAYTKVVRAVRRANA
-0.0204

// provenance: the supplement of paper PMC12632987
